- Tested on: Enterococcus faecalis ATCC29212
- Type: cell-based
- setup conditions: ATCC29212
Residues, ends and D or L forms follow the SMILES beside them.
Recorded MIC by entry
quantity kind: MIC (µM)

{"columns": ["compound", "comparative sign", "endpoint result"],
 "data": [
  ["CC[C@H](C)[C@H](NC(=O)[C@H](C)N)C(=O)N[C@@H](CCCNC(=N)N)C(=O)N[C@@H](CCCNC(=N)N)C(=O)N[C@@H](Cc1c[nH]c2ccccc12)C(=O)N[C@@H](CCCNC(=N)N)C(=O)N[C@H](C(=O)N[C@@H](CCCNC(=N)N)C(=O)N[C@@H](CCCCN)C(N)=O)[C@@H](C)CC [HHC142, AIRRWRIRK] (H-AIRRWRIRK-NH2; N-terminus assumed)", ">", 217],
  ["CC[C@H](C)[C@H](N)C(=O)N[C@@H](Cc1c[nH]c2ccccc12)C(=O)N[C@@H](Cc1c[nH]c2ccccc12)C(=O)N[C@@H](CCCCN)C(=O)N[C@@H](Cc1c[nH]c2ccccc12)C(=O)N[C@@H](CCCNC(=N)N)C(=O)N[C@@H](CCCNC(=N)N)C(=O)N[C@@H](Cc1c[nH]c2ccccc12)C(=O)N[C@H](C(N)=O)C(C)C [HHC77, IWWKWRRWV] (H-IWWKWRRWV-NH2; N-terminus assumed)", "=", 24]
]}
